Assay: Stability test of pasta rods with selected mediators stored at different temperatures
Type: physicochemical
Set-up: unit not given here
Settings: 35°C; listed as b; Time 0
result.type: activity of rod in stability test
// no unit string in output, number only

Some solved entries appear below for comparison.
CN(C)c1ccc2c(c1)Sc1c(ccc(N(C)C)c1[N+](=O)[O-])N2 [MG] : 13.3
c1cc(N2CCCCC2)ccc1N1CCCCC1 [BPP, 1,4-dipiperidinobenzene] : 10.6

Report activity of rod in stability test for c1cc(N2CCOCC2)ccc1N1CCCCC1 [MPP, 1-morpholino-4-piperidinobenzene]
9.0

Report activity of rod in stability test for c1cc(N2CCOCC2)ccc1N1CCOCC1 [BMP, 1,4-dimorpholinobenzene]
16.7

Report activity of rod in stability test for CN(C)c1ccc(N2CCOCC2)cc1 [MDMP, 1-dimethylamino-4-morpholinobenzene]
13.4
